test: Oral bioavailability in Sprague-Dawley rat at 10 mg/kg, measured up 48 hrs by LC-MS/MS analysis; assay type: ADME, organism-based; settings: in vivo
observed.property: bioavailability (%)
A number alone suffices; assume %.

Q. Query (compound): Cl.Cn1ncc(Cl)c1-c1csc(C(=O)N[C@@H]2CNCC[C@H]2c2cccc(F)c2)c1 ; field requested: bioavailability
A. 52

* * *

biological target: hERG (KCNH2) (Homo sapiens); assay: Inhibition of human ERG expressed in HEK293 cells at 3 uM at - 40 mV holding potential by whole cell patch clamp assay relative to control; type: cell-based; conditions: HEK293 cells expressing human ERG
Sequence (Q12809 whole entry): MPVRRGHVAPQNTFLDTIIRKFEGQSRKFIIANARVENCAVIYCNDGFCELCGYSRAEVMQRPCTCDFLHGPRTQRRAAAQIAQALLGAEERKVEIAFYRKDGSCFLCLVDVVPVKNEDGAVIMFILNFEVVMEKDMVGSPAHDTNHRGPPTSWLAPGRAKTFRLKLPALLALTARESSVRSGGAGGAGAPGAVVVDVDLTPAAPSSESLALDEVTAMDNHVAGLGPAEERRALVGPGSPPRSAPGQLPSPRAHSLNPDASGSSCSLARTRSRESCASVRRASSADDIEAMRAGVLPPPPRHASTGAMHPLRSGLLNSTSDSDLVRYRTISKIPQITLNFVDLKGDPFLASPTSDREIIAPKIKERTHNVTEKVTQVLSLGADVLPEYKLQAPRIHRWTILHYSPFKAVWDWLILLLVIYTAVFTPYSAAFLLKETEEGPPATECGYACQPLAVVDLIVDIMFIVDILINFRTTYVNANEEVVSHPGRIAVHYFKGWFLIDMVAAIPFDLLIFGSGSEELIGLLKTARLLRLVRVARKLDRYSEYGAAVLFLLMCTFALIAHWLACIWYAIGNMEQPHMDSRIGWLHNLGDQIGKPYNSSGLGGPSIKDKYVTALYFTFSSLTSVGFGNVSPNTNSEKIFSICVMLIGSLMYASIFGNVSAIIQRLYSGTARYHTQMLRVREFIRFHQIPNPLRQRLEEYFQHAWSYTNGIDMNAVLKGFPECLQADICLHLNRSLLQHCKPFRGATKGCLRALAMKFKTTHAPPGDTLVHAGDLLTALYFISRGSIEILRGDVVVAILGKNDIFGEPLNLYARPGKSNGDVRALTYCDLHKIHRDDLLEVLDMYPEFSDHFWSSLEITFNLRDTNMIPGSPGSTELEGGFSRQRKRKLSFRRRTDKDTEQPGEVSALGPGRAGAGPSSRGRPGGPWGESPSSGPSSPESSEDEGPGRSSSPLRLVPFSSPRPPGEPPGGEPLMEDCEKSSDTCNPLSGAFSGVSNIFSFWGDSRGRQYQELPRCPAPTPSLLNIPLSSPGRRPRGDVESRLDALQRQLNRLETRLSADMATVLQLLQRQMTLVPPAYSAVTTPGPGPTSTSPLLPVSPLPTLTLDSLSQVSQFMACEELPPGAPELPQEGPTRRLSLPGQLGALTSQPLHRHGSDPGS
observed.property: inhibition at 3 µM (%)
Return type: number; implicit unit %.

Q. Query for hERG (KCNH2) (Homo sapiens): what inhibition at 3 µM does the record show for Cl.Cn1ncc(Cl)c1-c1csc(C(=O)N[C@@H]2CNCC[C@H]2c2cccc(F)c2)c1 ?
A. 40

* * *

experiment: Stability in human liver microsomes assessed as remaining compound at 100 ug/ml incubated for 1.5 hrs by LC-MS analysis; format: ADME, Microsome; settings: read-out: Stability
observed.property: remaining at 1.5 h, 100 ug/ml (%)
Supply the numeric figure in %, leaving out any unit text.

Q. Fill blank: measured remaining at 1.5 h, 100 ug/ml of the compound Cl.Cn1ncc(Cl)c1-c1csc(C(=O)N[C@@H]2CNCC[C@H]2c2cccc(F)c2)c1 is ____.
A. 88.3

* * *

tested on: HuT78; assay: Antiproliferative activity against human HUT78 cells assessed as reduction in cell viability; assay type: functional, cell-based
observed.property: pIC50
Lab note: report pIC50 as minus log10 of the concentration in molar units, number only.

[
  {
    "smiles.representation": "Cl.Cn1ncc(Cl)c1-c1ccc(C(=O)N[C@@H]2CNCC[C@H]2c2cccc(F)c2)s1",
    "meas.value": 6.53
  }
]

Attention now shifts to the item below.
Q. Which pIC50 is reported for this compound? Cn1ncc(Cl)c1-c1cc(C(=O)N[C@H](CN)Cc2ccc(F)c(F)c2)oc1Cl
A. 6.42

* * *

system: HCT-116; assay: Cytotoxicity against human HCT116 cells assessed as reduction in cell viability incubated for 72 hrs by SRB assay; format: functional, cell-based; settings: HCT-116, 72 h
observed.property: pIC50
In textbook form, pIC50 equals minus log to base ten of the concentration in mol/L.

[
  {
    "smiles.representation": "Cl.Cn1ncc(Cl)c1-c1ccc(C(=O)N[C@@H]2CNCC[C@H]2c2cccc(F)c2)s1",
    "pIC50": 6.36
  }
]

Q. Fill blank: measured pIC50 of the compound Cn1ncc(Cl)c1-c1csc(C(=O)N[C@@H]2CNCC[C@H]2c2ccc(Cl)c(C(F)(F)F)c2)c1 is ____.
A. 5.73

Q. And Cn1ncc(Br)c1-c1ccc(C(=O)N[C@@H]2CNCC[C@H]2c2cccc(F)c2)s1 ?
A. 6.05

Q. # iterate: Cn1ncc(CO)c1-c1ccc(C(=O)N[C@@H]2CNCC[C@H]2c2cccc(F)c2)s1
A. 5.13

Q. Please give the result for Cl.Cn1ncc(Cl)c1-c1csc(C(=O)N[C@@H]2CNCC[C@H]2c2cccc(F)c2)c1 too.
A. 6.02

Q. Moving on to the next compound: Cn1ncc(-c2ccncc2)c1-c1ccc(C(=O)N[C@@H]2CNCC[C@H]2c2cccc(F)c2)s1
A. 4.62

Q. Request: Cn1ncc(Cl)c1-c1ccc(C(=O)N[C@@H]2CNCC[C@H]2c2ccc(Cl)cc2)s1
A. 5.52

Q. Now consider CCc1cnn(C)c1-c1ccc(C(=O)N[C@@H]2CNCC[C@H]2c2cccc(F)c2)s1 and answer again.
A. 5.55
